# systemTested: pooled human IgG (human IgG1, 2, 3 and 4)
measure: Enzyme Activity Endpoint Assay (purified): scIgG (ng/µL)
Express the result in ng/µL but write the number alone.

Req: Consider the protein PRT-609 (protein) MQITSVWTKGVTPLTPEQFRYNNEDVIHAPYLAHQGWYDITKAFDRGDNLLCGAATAGNMLHWWFDQNKTEIEAYLSKHPEKQKIIFNNQELFDLKAAIDTKDSQTNSQLFNYFRDKAFPNLSARQGGVMPDLVLDMFINGYYLNVFKTQSTDVNRPYQDKDKRGGIFDAVFTRGDQTTLLTARHDLKNKGLNDISTIIKQELTEGRALALSHTYANVSISHVINLWGADFNAEGNLEAIYVTDSDADEKIGMKKYFVGINAHGHVAISAKKIEGENIGAQVLGLFTLSSGKDIWQKLSLEHHHHHH . State its measured Enzyme Activity Endpoint Assay (purified): scIgG.
Resp: 726

Field: next protein
Req: Hello, please tell me recorded Enzyme Activity Endpoint Assay (purified): scIgG for this one: PRT-391 (protein) MVTSVWTKGVTPPTNFTYGEDVLHAPYVANQGWYDITKTFNGKDDLLCGAATAGNMLHWWFDQNKEQIENYLKKHPEKQKINFNGEQMFDVKEAIDTKDSQLDSKLFEYFKEKAFPYLSTKHLGVFPDHVIDMFINGYRLSLTNHGPTPVKRGSKDKRGGIFDAVFTRGDQSKLLTNRHDFKEKTLKEISDLIKQELTEGKALGISHTYANVRINHVINLWGADFDAEGNLEAIYVTDSDSNASIGMKKYFVGVNSNGKVAISAKEIEEDNIGAQVLGLFTLSTGQDIWNQTN
Resp: 192
